Target: PLL3 (Photorhabdus laumondii subsp. laumondii, UniProt Q7N8I7)
Sequence (Q7N8I7 entry or part of it): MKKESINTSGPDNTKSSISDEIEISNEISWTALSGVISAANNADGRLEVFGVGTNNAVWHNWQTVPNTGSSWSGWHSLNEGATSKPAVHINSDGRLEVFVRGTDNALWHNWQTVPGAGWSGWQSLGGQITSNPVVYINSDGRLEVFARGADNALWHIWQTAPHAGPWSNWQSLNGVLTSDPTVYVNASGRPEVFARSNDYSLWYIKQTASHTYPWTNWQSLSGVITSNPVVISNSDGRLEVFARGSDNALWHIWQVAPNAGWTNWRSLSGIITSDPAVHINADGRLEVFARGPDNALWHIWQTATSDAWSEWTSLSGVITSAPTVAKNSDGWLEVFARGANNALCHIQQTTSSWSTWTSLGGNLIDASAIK
Assay: Isothermal titration calorimetry (ITC)
Assay type: binding
Settings: stoichiometry fixed to 7, 25 °C, read-out: KD
Method: ITC experiments were carried out using an AutoITC200 calorimeter (Malvern, UK) at 25 °C. The purified lectin was dialyzed against 20 mM Tris/HCl, 150 mM NaCl, pH 7.5 buffer before measurements. […] The data were evaluated in software MicroCal PEAQ-ITC Analysis Software (Malvern, UK) by using the global fit method. Integrated heat effects were analyzed by nonlinear regression.
Recorded Kd by entry

{"molecule": "CO[C@@H]1O[C@@H](C)[C@@H](O)[C@@H](O)[C@@H]1O [methyl α-L-fucopyranoside]", "display_unit": "mM", "Kd": 0.6}
{"molecule": "CO[C@@H]([C@H](O)[C@H](O)CO)[C@@H](O)C=O [3-O-methyl-D-glucose]", "display_unit": "mM", "Kd": 10.4}
{"molecule": "OC[C@H]1OC(O)[C@H](O)[C@@H](O)[C@@H]1O (stereo partly drawn) [D-glucose]", "display_unit": "mM", "Kd": 3.1}
{"molecule": "C[C@H](O)[C@@H](O)[C@@H](O)[C@H](O)C=O [L-fucose]", "display_unit": "mM", "Kd": 3}
